Molecular target: RILPL1; also: reference of the scale not given here
Assay: pooled miR-30 sensor sort-seq; sequence = guide strand
Details: shRNA
Assignment: determine reported sensor-assay potency score (higher = more potent) for the given sequences.
Numbers only.

Answered examples (5):
TATTCGGTTTTCCTCTTCCATT
-1.63
TTGTTTGTCCACCACCTCCTTC
-0.987
TTGCGCTCCTTCTCGATGCGGT
-0.346
TTGGACTTGAGCTCGTTCCTCT
-0.104
TTGGCGCGGATCTCGTCGCGTT
-1.09

Look up sensor-assay potency score (higher = more potent) for the entries below, preserving their order.
1. TTCAGGGTGCATCTGCACCGAG
2. TTAGAAACAGTGATAGCCCTGG
3. TCCTGCAGCAAGAACACCTTGG

[-0.831, 0.299, -0.555]

This collection of values is drawn from the OligoGym collection.
